Biological target: T1, human TL1A extracellular domain with N-terminal HIS and FLAG tag (human, UniProt O95150 72-251)
T1 construct: the whole entry is named
T1 sequence: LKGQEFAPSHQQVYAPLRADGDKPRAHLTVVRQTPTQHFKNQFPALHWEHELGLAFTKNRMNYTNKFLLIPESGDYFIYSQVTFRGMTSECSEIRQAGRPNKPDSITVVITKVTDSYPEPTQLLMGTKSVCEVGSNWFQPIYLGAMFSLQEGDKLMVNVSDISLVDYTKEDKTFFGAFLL
Assay: SPR Run 6, purified Ab captured on Protein A, TL1A 5 ug/mL, timepoint 44
Quantity: TL1A Binding Level (Early) (RU)
Just the number in RU, nothing appended.

Binder	TL1A Binding Level (Early) [RU]
320-461 (antibody, human IgG1, name in Kabat numbering, V domains shown, human IgG1, lambda) VH: QVQLVQSGAEVKKPGASVKVSCKASGYTFTSYDWNWVRQAPGQGLEWMGWLNPNSGNTGYAQKFQGRVTMTADRSTSTAYMELSSLRSEDTAVYYCAREVPETAAFEYWGQGTLVTVSS VL: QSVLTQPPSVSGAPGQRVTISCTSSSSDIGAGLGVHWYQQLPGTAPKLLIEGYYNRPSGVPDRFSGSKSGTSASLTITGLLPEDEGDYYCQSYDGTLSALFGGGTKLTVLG	87
320-460 (antibody, human IgG1, name in Kabat numbering, V domains shown, human IgG1, lambda) VH: QVQLVQSGAEVKKPGASVKVSCKASGYTFTSYDLNWVRQAPGQGLEWMGWLNPNSGNTGYAQKFQGRVTMTADRSTSTAYMELSSLRSEDTAVYYCAREVPETAAFEYWGQGTLVTVSS VL: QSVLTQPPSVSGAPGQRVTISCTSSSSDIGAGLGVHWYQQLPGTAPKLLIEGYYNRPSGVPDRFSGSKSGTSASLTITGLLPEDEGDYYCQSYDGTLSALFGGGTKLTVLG	114

Shifting focus to the binder that follows.
Item 320-444 (antibody, human IgG1, name in Kabat numbering, V domains shown, human IgG1, lambda) VH: QVQLVQSGAEVKKPGASVKVSCKASGYTFTSLDINWVRQAPGQGLEWMGWLNPNSGNTGYAQKFQGRVTMTADRSTSTAYMELSSLRSEDTAVYYCAREVPETAAFEYWGQGTLVTVSS VL: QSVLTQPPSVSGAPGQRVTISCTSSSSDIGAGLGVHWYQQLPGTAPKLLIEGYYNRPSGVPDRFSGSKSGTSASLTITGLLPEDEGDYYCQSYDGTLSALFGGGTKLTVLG has what recorded TL1A Binding Level (Early)?
107

All figures here come from patent US20170081400A1.
